# target or system: CDK2 (Homo sapiens)
# Construct: endogenous in cells; host or cells: MDA-MB-231
# test protocol: CDK protein degradation activity (Western blotting), CDK2
# Assay type: cell-based
# test settings: MDA-MB-231 cells, 0.1 μM, 16 hours, Western blot
Field: Enzyme degradation CDK2 (% remaining) @ 0.1 μM. Provide a value for each of the compounds that follow.

O=C1CC[C@H](N2C(=O)c3ccc(OCC(=O)N4CCC(CN5CCN(c6ccc(Nc7ncnc8c7ncn8[C@H]7C[C@@H](NC(=O)c8c(Cl)cccc8Cl)C7)cc6)CC5)CC4)cc3C2=O)C(=O)N1 :: 50/50/50%
Cc1cccc(C(=O)NC2CC(n3cnc4c(NC5CCN(CCCN6CCN(c7cccc8c7C(=O)N([C@H]7CCC(=O)NC7=O)C8=O)CC6)CC5)ncnc43)C2)n1 (some centres unmarked) :: 100%
Cc1cccc(C(=O)N[C@H]2C[C@H](n3cnc4c(NCC5CCN(CC6CCN(C(=O)CNc7cccc8c7C(=O)N(C7CCC(=O)NC7=O)C8=O)CC6)CC5)ncnc43)C2)n1 (some centres unmarked) :: 20%

I need Enzyme degradation CDK2 (% remaining) @ 0.1 μM for every entry listed below, if you could help.
1. O=C1CC[C@@H](c2cccc(OCC(=O)N3CC(N4CCC5(CC4)CC(N4CCN(c6ccc(Nc7ncnc8c7ncn8[C@H]7C[C@@H](NC(=O)Cc8ccccc8)C7)cc6)CC4)C5)C3)c2)C(=O)N1
2. N#Cc1cccc(C(=O)N[C@H]2C[C@@H](n3cnc4c(Nc5ccc(N6CCN(CC7CCN(C(=O)C8CCN(c9ccc%10c(c9)C(=O)N(C9CCC(=O)NC9=O)C%10=O)CC8)CC7)CC6)cc5)ncnc43)C2)n1 (some centres unmarked)

Key:
["30%", "30%"]

---

# target or system: CDK2 (Homo sapiens, UniProt P24941)
# Construct: endogenous in cells; host or cells: MDA-MB-231
# test protocol: CDK protein degradation activity (Western blotting), CDK2
# Format: cell-based
# test settings: MDA-MB-231 cells, 1 μM, 16 hours, Western blot
# Method: In order to evaluate the CDK protein degradation activity of the compounds according to the present invention, the following experiment was conducted. MDA-MB-231 cells were seeded at 5×10^5 cells per well in a 6-well plate. The next day, the compounds were treated in each well to achieve final concentrations of 100 nM, 1 μM, and 10 μM. […] Cell lysates were quantified and separated by size using sodium dodecyl sulfate-polyacrylamide gel electrophoresis (SDS-PAGE). […]
readout name: Enzyme degradation CDK2 (% remaining) @ 1 μM (%)
Give bare numbers, in %.

Consider the reported Enzyme degradation CDK2 (% remaining) @ 1 μM for these compounds:
Cc1cccc(C(=O)NC2CC(n3cnc4c(NCCCN5CCN(CC6CCN(C(=O)CNc7ccc8c(c7)C(=O)N([C@@H]7CCC(=O)NC7=O)C8=O)CC6)CC5)ncnc43)C2)n1 (some centres unmarked) :: 50
O=C1CC[C@H](N2C(=O)c3ccc(N4CCC(C(=O)N5CCN(C6CC7(CCN(c8ccc(Nc9ncnc%10c9ncn%10[C@H]9C[C@@H](NC(=O)Cc%10ccccc%10)C9)cc8)CC7)C6)CC5)CC4)cc3C2=O)C(=O)N1 :: 10
Cc1cccc(C(=O)NC2CC(n3cnc4c(NCCC5CCN(CC6CCN(C(=O)COc7cccc8c7C(=O)N([C@H]7CCC(=O)NC7=O)C8=O)CC6)CC5)ncnc43)C2)n1 (some centres unmarked) :: 10

As a next step, examine the compound that follows.
Exercise: Tell me its Enzyme degradation CDK2 (% remaining) @ 1 μM given O=C1CC[C@H](N2C(=O)c3cccc(OCC(=O)N4CCC(CN5CCC(CNc6ncnc7c6ncn7C6CC(NC(=O)Cc7ccccc7)C6)CC5)CC4)c3C2=O)C(=O)N1 (some centres unmarked) as the entry.
Key: 50
